Attribution: patent US10821115B2

# target_of_assay: recombinant human Mcl-1 (residues 171-327) / Bim interaction (Homo sapiens (Human))
# assay: biochemical
# Type: binding
# protocol_conditions: 0.1 nM Mcl-1(171-327), 0.05 nM biotin-Bim (51-76); read-out: Mcl-1 HTRF IC50
Label Condition met when IC50 is strictly below 0.4 nM; otherwise label Condition not met.

Completed entries (count: 3):
[
  {
    "compound": "CCOC1(CN2CCN(C(C)C)CC2)/C=C/C[C@H](C)[C@@H](C)S(=O)(=O)NC(=O)c2ccc3c(c2)N(C[C@@H]2CC[C@H]21)C[C@@]1(CCCc2cc(Cl)ccc21)CO3 (stereo in doubt)",
    "cat": "Condition not met"
  },
  {
    "compound": "CO[C@@]1(CN2CCN(c3ccccc3)CC2)/C=C/C[C@H](C)[C@@H](C)S(=O)(=O)NC(=O)c2ccc3c(c2)N(C[C@@H]2CC[C@H]21)C[C@@]1(CCCc2cc(Cl)ccc21)CO3",
    "cat": "Condition not met"
  },
  {
    "compound": "COCC(COC)N1CCN(C[C@]2(OC)/C=C/C[C@H](C)[C@@H](COC)S(=O)(=O)NC(=O)c3ccc4c(c3)N(C[C@@H]3CC[C@H]32)C[C@@]2(CCCc3cc(Cl)ccc32)CO4)CC1",
    "cat": "Condition met"
  }
]

Incoming: Check if IC50 falls below 0.4 nM for CO[C@@]1(CN2CCN(CC(F)(F)F)CC2)/C=C/C[C@H](C)[C@@H](C)S(=O)(=O)NC(=O)c2ccc3c(c2)N(C[C@@H]2CC[C@H]21)C[C@@]1(CCCc2cc(Cl)ccc21)CO3 .
Outgoing: Condition met

Incoming: Same thing, different compound: CC(C)CO[C@@]1(CN2CCN3CCOC[C@@H]3C2)/C=C/C[C@H](C)[C@@H](C)S(=O)(=O)NC(=O)c2ccc3c(c2)N(C[C@@H]2CC[C@H]21)C[C@@]1(CCCc2cc(Cl)ccc21)CO3
Outgoing: Condition not met

Incoming: Same thing, different compound: C[C@@H]1[C@@H](C)C/C=C/[C@]2(CN3CCN(C)C[C@@H]3CO2)[C@@H]2CC[C@H]2CN2C[C@@]3(CCCc4cc(Cl)ccc43)COc3ccc(cc32)C(=O)NS1(=O)=O (single isomer, unassigned) [Example 132]
Outgoing: Condition not met

Incoming: Same thing, different compound: CO[C@@]1(CN2CCN3C(=O)OC[C@@H]3C2)/C=C/C[C@H](C)[C@@H](C)S(=O)(=O)NC(=O)c2ccc3c(c2)N(C[C@@H]2CC[C@H]21)C[C@@]1(CCCc2cc(Cl)ccc21)CO3
Outgoing: Condition met

Incoming: Same thing, different compound: CO[C@@]1(CN2CC3(C2)CN(C(=O)OC(C)(C)C)C3)/C=C/C[C@H](C)[C@@H](C)S(=O)(=O)NC(=O)c2ccc3c(c2)N(C[C@@H]2CC[C@H]21)C[C@@]1(CCCc2cc(Cl)ccc21)CO3
Outgoing: Condition met

Incoming: Same thing, different compound: COC1CCN(C[C@]2(OC)/C=C/C[C@H](C)[C@@H](C)S(=O)(=O)NC(=O)c3ccc4c(c3)N(C[C@@H]3CC[C@H]32)C[C@@]2(CCCc3cc(Cl)ccc32)CO4)CC1
Outgoing: Condition met

###

# target_of_assay: recombinant human Mcl-1 (residues 171-327) / Bim interaction (Homo sapiens (Human), UniProt Q07820)
# Sequence (Q07820 171-327): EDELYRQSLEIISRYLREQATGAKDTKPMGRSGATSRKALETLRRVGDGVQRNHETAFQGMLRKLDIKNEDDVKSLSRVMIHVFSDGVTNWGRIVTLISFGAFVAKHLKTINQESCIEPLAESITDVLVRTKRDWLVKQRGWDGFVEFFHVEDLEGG
# assay: biochemical
# Format: binding
# protocol_conditions: 0.1 nM Mcl-1(171-327), 0.05 nM biotin-Bim (51-76); read-out: Mcl-1 HTRF IC50
Listing of entries alongside the reported log10 of IC50.
Could you please treat all values as log10 of IC50 in nM?

Below: 4 molecules and their reported log10 of IC50.
[
  {
    "molecule": "CO[C@]1(CN2CCCCC2)/C=C/C[C@H](C)[C@@H](C)S(=O)(=O)NC(=O)c2ccc3c(c2)N(C[C@@H]2CC[C@H]21)C[C@@]1(CCCc2cc(Cl)ccc21)CO3",
    "log10 of IC50": 0.36
  },
  {
    "molecule": "C[C@@H]1[C@@H](C)C/C=C/[C@](CN2CCN3CCOC[C@@H]3C2)(OCC(F)(F)F)[C@@H]2CC[C@H]2CN2C[C@@]3(CCCc4cc(Cl)ccc43)COc3ccc(cc32)C(=O)NS1(=O)=O",
    "log10 of IC50": -1.06
  },
  {
    "molecule": "C[C@@H]1[C@@H](C)CCC[C@@](O)(CN)[C@@H]2CC[C@H]2CN2C[C@@]3(CCCc4cc(Cl)ccc43)COc3ccc(cc32)C(=O)NS1(=O)=O (single isomer, unassigned)",
    "log10 of IC50": 1.14
  },
  {
    "molecule": "COCC[C@@H]1[C@@H](C)C/C=C/[C@](CN2CCN(C3COC3)CC2)(OC)[C@@H]2CC[C@H]2CN2C[C@@]3(CCCc4cc(Cl)ccc43)COc3ccc(nc32)C(=O)NS1(=O)=O",
    "log10 of IC50": -1.15
  }
]

Incoming: Name the reported log10 of IC50 value associated with the molecule CO[C@@]1(CN2CCN(C3COCCOC3)CC2)/C=C/C[C@H](C)[C@@H](C)S(=O)(=O)NC(=O)c2ccc3c(c2)N(C[C@@H]2CC[C@H]21)C[C@@]1(CCCc2cc(Cl)ccc21)CO3
Outgoing: -0.89

Incoming: Same thing, different molecule: CCCO[C@]1(CN2CCN(C(C)C)[C@H](C)C2)/C=C/C[C@H](C)[C@@H](C)S(=O)(=O)NC(=O)c2ccc3c(c2)N(C[C@@H]2CC[C@H]21)C[C@@]1(CCCc2cc(Cl)ccc21)CO3
Outgoing: -1.16

Incoming: Same thing, different molecule: CO[C@]1(CN2CCN(CC(C)(C)C)CC2)/C=C/C[C@H](C)[C@@H](C)S(=O)(=O)NC(=O)c2ccc3c(c2)N(C[C@@H]2CC[C@H]21)C[C@@]1(CCCc2cc(Cl)ccc21)CO3
Outgoing: -0.02

Incoming: Same thing, different molecule: CO[C@@]1(CN2CCN3CCOC[C@@H]3C2)/C=C/C[C@H](C)[C@@H](CC2CCC2)S(=O)(=O)NC(=O)c2ccc3c(c2)N(C[C@@H]2CC[C@H]21)C[C@@]1(CCCc2cc(Cl)ccc21)CO3
Outgoing: -0.42

Incoming: Same thing, different molecule: CO[C@]1(CN2CCN(C(C)(C)C)CC2)/C=C/C[C@H](C)[C@@H](C)S(=O)(=O)NC(=O)c2ccc3c(c2)N(C[C@@H]2CC[C@H]21)C[C@@]1(CCCc2cc(Cl)ccc21)CO3
Outgoing: -1.06

Incoming: Same thing, different molecule: CO[C@]1(CN2CCN3CCN(S(C)(=O)=O)C[C@@H]3C2)/C=C/C[C@H](C)[C@@H](C)S(=O)(=O)NC(=O)c2ccc3c(c2)N(C[C@@H]2CC[C@H]21)C[C@@]1(CCCc2cc(Cl)ccc21)CO3 [Example 227]
Outgoing: -0.68

Incoming: Same thing, different molecule: CCOCCN1CCN(C[C@]2(OC)/C=C/C[C@H](C)[C@@H](C)S(=O)(=O)NC(=O)c3ccc4c(c3)N(C[C@@H]3CC[C@H]32)C[C@@]2(CCCc3cc(Cl)ccc32)CO4)CC1
Outgoing: -0.82

Incoming: Same thing, different molecule: CO[C@]1(CN2C[C@@H](C)N(C)[C@@H](C)C2)/C=C/C[C@H](C)[C@@H](C)S(=O)(=O)NC(=O)c2ccc3c(c2)N(C[C@@H]2CC[C@H]21)C[C@@]1(CCCc2cc(Cl)ccc21)CO3
Outgoing: -1.07

Incoming: Same thing, different molecule: C=CCO[C@]1(CN2CCN3CCOC[C@@H]3C2)/C=C/C[C@H](C)[C@@H](C)S(=O)(=O)NC(=O)c2ccc3c(c2)N(C[C@@H]2CC[C@H]21)C[C@@]1(CCCc2cc(Cl)ccc21)CO3
Outgoing: -0.97

Incoming: Same thing, different molecule: CO[C@@]1(CN2CCN(c3cnccn3)CC2)/C=C/C[C@H](C)[C@@H](C)S(=O)(=O)NC(=O)c2ccc3c(c2)N(C[C@@H]2CC[C@H]21)C[C@@]1(CCCc2cc(Cl)ccc21)CO3
Outgoing: -0.39

Incoming: Same thing, different molecule: CO[C@]1(CN2CCN3CCCC[C@@H]3C2)/C=C/C[C@H](C)[C@@H](C)S(=O)(=O)NC(=O)c2ccc3c(n2)N(C[C@@H]2CC[C@H]21)C[C@@]1(CCCc2cc(Cl)ccc21)CO3
Outgoing: -0.59

Incoming: Same thing, different molecule: C[C@@H]1[C@@H](C)C/C=C/[C@]2(CNC(=O)O2)[C@@H]2CC[C@H]2CN2C[C@@]3(CCCc4cc(Cl)ccc43)COc3ccc(cc32)C(=O)NS1(=O)=O (single isomer, unassigned)
Outgoing: -0.59

Incoming: Same thing, different molecule: CO[C@@]1(CN2CCN(c3ccncc3)CC2)/C=C/C[C@H](C)[C@@H](C)S(=O)(=O)NC(=O)c2ccc3c(c2)N(C[C@@H]2CC[C@H]21)C[C@@]1(CCCc2cc(Cl)ccc21)CO3
Outgoing: 0.08

Incoming: Same thing, different molecule: CO[C@@]1(CN2CCN3CC[C@H](F)C[C@@H]3C2)/C=C/C[C@H](C)[C@@H](C)S(=O)(=O)NC(=O)c2ccc3c(c2)N(C[C@@H]2CC[C@H]21)C[C@@]1(CCCc2cc(Cl)ccc21)CO3 (single isomer, unassigned) [Example 283]
Outgoing: -0.45
